Would you kindly list protein stability index for each of these sequences?
# test protocol: protein stability index of a GFP-peptide fusion (GPS, HEK-293T) (PSI 1-6); higher = more stable;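 further: 24-mer peptide tiles fused after GFP, lentivirally expressed, FACS-sorted into six equal bins by GFP/DsRed ratio, decoded by Illumina sequencing, PSI is the read-weighted mean bin number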
# protocol conditions: treatment: MLN4924 1 uM, 8 h; c terminus: a fixed tail appended
Give bare numbers.

The cases that follow already have their protein stability index on record.
record sequence | meas value
SLTDDKYDVAMNRAKDLVELDPEV [GOLPH3L] | 5.4
GVAVGDWVLSIDGENAGSLTHIEA [PDLIM7] | 2.96
KSLEGGGTAFDAETDSEMNSQESR [SMG5] | 5.58
SSIPCSGSLDGRELSRQVRSSVEL [PPEF2] | 4.17
GQMSTPETPQPSPPGGSGSEPYKL [HNF4A] | 5.17
LRRTMQELEIELQSQLSMKAGLEN [KRT15] | 3.13
KQDLVPGSPDDSHPKDGPSPGGTL [DLC1] | 5.37
ASIPEHLAYGSVITVKNLRMAIGY [POMT2] | 2.43
SENKIVGIGYNGMPNGCSDDVLPW [DCTD] | 3.56
LIRSLFHGFLFMIFQIGVLGFGPT [SOAT1] | 3.28

Dear reader, for each entry below, please note its protein stability index.
1. EERVALNTEIEKLGRSIVSSPQGK [PKD2L1]
2. LWIKFFAAGELESMGFSARYNFTP [NETO1]
3. VTFRDVAVDFTQEEWGQLDPTQRI [ZNF8]

[5.15, 2.58, 3.82]

====

# test protocol: protein stability index of a GFP-peptide fusion (GPS, HEK-293T) (PSI 1-6); higher = more stable
# protocol conditions: treatment: MLN4924 1 uM, 8 h; c terminus: a fixed tail appended
Entry flag: MET if protein stability index reaches 4; NOT MET if it does not.

Before answering, review these 3 worked examples.
record sequence | class label
SLSVRHRQVKHYRIFRLPNNWYYI [SLA] | NOT MET
KEYDVARNTGAYTSSGLATASFRT [TEKT4] | NOT MET
YSLAPNTPINQNVSLHQASLGGCS [NFE2L1] | NOT MET

Answer whether protein stability index of CMYRHALPPGFVLKKDKKKEEKED [ZC3H15] is greater than or equal to 4.
MET

Item: LDVVDNQTEKLDTNITEVDAASVY [CASP6]
MET

Please do the same for EETVTQDCLQLIADSETPTIQKGS [TNFSF13B] as well.
MET

====

# test protocol: protein stability index of a GFP-peptide fusion (GPS, HEK-293T) (PSI 1-6); higher = more stable
# protocol conditions: treatment: MLN4924 1 uM, 8 h; c terminus: a fixed tail appended
Assign protein stability index to each entry below.
Give bare numbers.

Use these answered entries as a reference point.
record sequence | protein stability index
PVAMRVAKLAINQGMEVDLVTGLA [AUH] | 2.92
EEEDQHMKLSLGGSEMGLSSHLQS [KLHL13] | 4.91
QDDSKPTQRQFTILNFNDLMSSAV [AASDHPPT] | 2.97
EPNNIVVLLQTSPYHVDSLLQLSD [TCF25] | 2.11
IGSKNGGKTTIILRCLDRDEPSKP [DYNC2LI1] | 3.16

Go through the list and state protein stability index for each entry.
1. KGCSLEQISMELAKVNYVKNNICF [SLC2A12]
2. FKEQLQALIPYVLNPSKLMEKEIN [ATL3]
3. RRSPRPDHPGTPPHKTFRKLRLFD [WEE1]
4. KEPPLLLGVLHPNTKLRQAERLFE [APMAP]
5. LYPDLSCPEGLEELLSAPPPDLGA [SPSB2]
6. CARMLYNYGADTNTRNYEGQTPLA [ASB7]

[2.27, 2.22, 3.71, 2.78, 4.46, 2.62]

Parameters: items (list). Returns: protein stability index for each item.
1. GTNAWEEIATKPHEKIGFPAARRC [KLHDC10]
2. TTEKQRLVKKLQDSVLERWVNDPQ [GOLPH3L]
3. QLSPNLDLDPLELIALANRFCLPH [RHOBTB1]
4. ASSVHLKSESSLPHQTSKMENLPG
5. IQYLTENIWASQSVLSACDNLSDL [IQUB]
6. QQKEEEEEMAVVPQGLFRGGKSGE [CHGA]
7. VDLFKQLCEKEPLGNVLFSPICLS [SERPINB5]

1. 3.91
2. 4.05
3. 2.44
4. 4.85
5. 2.49
6. 5.63
7. 2.08

Batch of 8 sequences: report protein stability index for each.
1. EKLAPSEITEELPSSQLMPVKKQL [ZNF396]
2. TGGPDACLRCWDQRTIMKPLEYQF [TLE6]
3. MSFLSRQQPPPPRRAGAACTLRQK [WEE1]
4. KNLQQTTNTTSTQMTNIGVYVSNM [IQUB]
5. DSSFPPALAEGYRYPELDTPKLDC [TBX6]
6. AHWQCGATLTQVSVEYGYRPGATA [FCHO1]
7. YLTVKVWDLNMENRPIETYQVHDY [PPP2R2B]
8. DSCDRLTQSWSSQSSFNSLQRVPS [ETS1]

5.14
2.74
3.88
3.17
4.72
2.24
2.31
4.07

Report protein stability index for every entry below.
1. YEAGVLAFYDVTGGMSHLHTFRAT [TRIM14]
2. IPAFCELPLDDQVALLRAHAGEHL [HNF4A]
3. SYSFQNPSSFDPSMLLQRFSVAPH [RNF180]

1: 2.07; 2: 3.22; 3: 2.68

Please state protein stability index for every sequence in the list that follows.
1. LKRKGKTDSPWIKPARKRRRRSRK [EHMT1]
2. GFSSIPDAFWWAVVTMTTVGYGDM [KCNA3]
3. YSYLVLLFPVFLATDYLRYKPVVL [SLC19A2]
4. APQHPAASALRTRMTGGRPPLPPP [DYRK1B]
5. ALTNIQNCMAEKRETVLIETQLKA [C8orf76]
6. KVHYLFPDGKEMAEEYDEKTSELL [DPCD]
7. YRYCCKLNKKLKSYSLSRKKIVHY [CDC14A]
8. LWFANAHLLSWFSPTIIFDNWIPL [DHCR7]

5.03
3.25
3.01
4.41
3.09
4.42
2.25
2.93

Record protein stability index per entry; entries follow.
1. WCLHVNNWLQVSFTAKHANKVKVL [FSD1]
2. KVQELMSTHELEKKELEENFEKLR [MTUS2]

1. 2.93
2. 5.14

For every record below, what is its protein stability index?
1. LCKNLNREAQQYSEALASTRILKH [GLIPR2]
2. QLVEMTGLSPRVIRVWFQNKRCKD [ISL2]
3. IGDFGISKILSSKSKAYTVVGTPC [NEK8]
4. GRRGWKKFYAVLKGTILYLQKDEY [PSD2]
5. SRLNLTGLGYFSCHSHTVVQDYSY [CCDC3]

[3.74, 2.95, 2.47, 3.32, 2.18]

Please state, for each entry, its recorded protein stability index.
1. KILYDDGKMVEEVDGRATQKLIVN [PTPRD]
2. SEVSFEGAYGNLKRLYDKAAKMYH [SMG5]

1. 3.6
2. 2.23

Numbers sourced from the supplement of paper PMC10567573.
